Test system: SK-MEL-5 melanoma
Assay: NCI tumour cell line growth inhibition, 48 h
READOUT: TGI

Examples with answers:
Cc1oc2nc(N(C)C)n3nnnc3c2c1C = > 100 µM
CCCCCCCCCCCCOC1C(CNCC2OC3OC(C)(C)OC3C2NC(=O)Nc2ccc(C(=O)OCC)cc2)OC2OC(C)(C)OC21 (centres undefined) = 4.13 µM
O=C1NC(=S)NC(=O)C1C(c1ccccc1[N+](=O)[O-])C1C(=O)NC(=S)NC1=O = > 100 µM
NC1(CCCCCCCCCCC(=O)O)CNCCNCCNCCNC1 = > 100 µM
CC(=O)CC(=O)c1cc2c(=O)oc(C)cc2oc1=O = > 37.5 µM
O=C(OCc1ccccc1)OOC(=O)OCc1ccccc1 = > 100 µM
COc1ccc(-n2cc(-c3ccc(OC)c(OC)c3)[nH]c2=S)cc1Cl = > 100 µM
CC(C)(C)C1=NC(S)NC(CCC(=O)Nc2ccccc2[N+](=O)[O-])=C1 (centres undefined) = > 100 µM
COc1cc2c(cc1OC)C1C=NC(C(=O)O)(C2)c2ccccc21 (centres undefined) = > 100 µM
OCc1c(-c2cccc3ccccc23)sc(-c2cccc3ccccc23)c1CO = 23.6 µM

What value of TGI has been recorded for this entry: Clc1ccc(Cc2nc3cc4ccccc4cc3[nH]2)cc1
> 100 µM

TGI lookup needed for CCOC(=O)CCCO , thanks.
> 100 µM

* * *

System: SF-295 CNS
Test: NCI tumour cell line growth inhibition, 48 h
This section presents compounds with their documented GI50 values.

CC[n+]1ccc2c(c1)C(=O)c1nccc3c1c-2nc1ccccc13 = 0.634 µM
CC1=C(CCCOC(=O)NCCCl)C2=C(C)C3(CC3)[C@@](C)(O)C(=O)C2=C1 = 2.53 µM
CCCCCCCCCCCCOC1C(CNCC2OC3OC(C)(C)OC3C2NC(=O)Nc2ccc(C(=O)OCC)cc2)OC2OC(C)(C)OC21 (stereo unspecified) = 6.31 µM
O=C1CSC(N2CCN(c3cccc(Cl)c3)CC2)=N1 = > 100 µM

Now let's try a different one.
What GI50 value was documented for this compound, O=C1c2ccccc2-c2c1c1cc3c(cc1c(=O)n2CCCCl)OCO3 ?
16.2 µM

* * *

Tested on: MDA-MB-435
Experiment: NCI tumour cell line growth inhibition, 48 h
READOUT: TGI (µM)
Output spec: scalar in µM, unitless text.

Record excerpt, results attached:
Fc1ccc(-c2nn(-c3ccccc3)cc2-c2nc3ccccc3o2)cc1 = 3.41
CN1CCN(Cc2ccc(NC(=O)c3cncc(C#Cc4cnc(N)c5ccccc45)c3)cc2C(F)(F)F)CC1 = 0.783

Using the record for CCOC(=O)c1cc(-c2ccc([N+](=O)[O-])cc2)n(-c2ccc(C(=O)O)c(O)c2)c1C , report its TGI.
14.6

Value lookup for TGI; key = CCCNC(=O)OCc1c(COC(=O)NCCC)c(-c2ccc(Cl)c(Cl)c2)n2c1CCC2
29.8

* * *

Test system: SNB-75 CNS
Assay: NCI tumour cell line growth inhibition, 48 h; in the data active = GI50 below about 0.43 µM; inactive = the rest
Write down one outcome, taken from 1 (yes) = active, 0 (no) = inactive

A selection of reference data follows.
O=C(Cc1ccc(/C=C/C(=O)c2ncc[nH]2)cc1)Nc1ccc(Cl)cc1 = 0 (no)
O=C1c2ccccc2C(=O)c2c1ccc1[nH]c(CCl)nc21 = 0 (no)
O=[n+]1c(CBr)c(CBr)n([O-])c2ccccc21 = 0 (no)
COC(=O)c1c2c(c(C)[n+]([O-])c1C)C(=O)C=CC2=O = 0 (no)
O=C1CSC(N2CCN(c3cccc(Cl)c3)CC2)=N1 = 0 (no)

Please examine the following record next.
Check the results log: what was the call for COc1ccc(-n2cc(-c3ccc(OC)c(OC)c3)[nH]c2=S)cc1Cl ?
0 (no)

* * *

Tested on: RPMI-8226 leukemia
Experiment: NCI tumour cell line growth inhibition, 48 h
# key: entry, value: TGI

# TGI lookup, item Cc1cccc2c3ccc4c(c3n(C)c12)C(=O)C=CC4=O
> 100 µM

Requested field: TGI. Item: CN(C)S(=O)(=O)Nc1ccccn1
> 100 µM

Would you kindly share the measured TGI for C1CN2N3CCCC23C1 (stereo not drawn) ?
> 100 µM

# TGI lookup, item COc1cccc(-c2nn(-c3ccccc3)cc2-c2ccnc(NCCCNS(=O)(=O)c3cccc(F)c3)c2)c1
9.92 µM

Suppose we examine the compound C[C@]12CCC(=O)C=C1CC[C@@H]1C2CC[C@]2(C)NC(=O)C(C#N)CC12 (stereo partly drawn) ; what TGI value has been reported?
> 100 µM

* * *

The reader will find reported TGI values listed item by item below.
Test system: SW-620 colon
Experiment: NCI tumour cell line growth inhibition, 48 h

N#CSCc1cccc(Nc2cc(=O)[nH]c(=O)[nH]2)c1 = > 100 µM
CCOC(=O)C1C(=O)CC(O)(c2ccccc2)C(C(=O)OCC)C1c1ccc(OC)cc1 (stereo not given) = > 74.3 µM
O=C(CCc1ccc(O)cc1)c1c(O)cc(O)cc1OC1OC(CO)C(O)C(O)C1O (stereo not given) = > 100 µM
CC(=O)/C(=C/n1c(=S)sc2ccccc21)C(=O)Nc1ccccc1C = > 100 µM
CC1CCC[P+](Cc2ccccc2)(c2ccccc2)CC1 (stereo not given) = > 100 µM

Need TGI, item NCCCC(N)C(=O)O (stereo not given)
> 100 µM

Look up TGI: C[C@@H]1C[C@H](O)[C@]2(O)O[C@@H]3C[C@@]4(C=O)[C@@H](CC=C5[C@@H]4CC[C@]4(C)[C@@H](C6=CC(=O)OC6)CC[C@]54O)C[C@H]3O[C@@H]2O1
1.87 µM

Endpoint output: TGI of N#Cc1nc(-c2ccc(F)cc2)oc1S(=O)(=O)N1CCOCC1 . Value?
3.24 µM

Which TGI value is on record for CCOC(=O)c1cc(-c2ccc([N+](=O)[O-])cc2)n(-c2ccc(C(=O)O)c(O)c2)c1C ?
16.8 µM

Suppose we examine the compound COc1cc2c(cc1OC)C(=O)/C(=C/c1cc(C)c(O)c(C)c1)C2 ; what TGI value has been reported?
> 100 µM

* * *

Below is a list of entries, each paired with its recorded TGI value.
Test system: OVCAR-3 ovarian
Assay: NCI tumour cell line growth inhibition, 48 h
Please give a number only; it is taken to be in µM.

O=C1c2ccccc2C(=O)c2c1ccc1[nH]c(CCl)nc21 = 3.03
Cc1cc(C)c2c(n1)S(=O)(=O)N(CCCN1CCN(c3cccc(C(F)(F)F)c3)CC1)/C(=C(\O)c1ccc(Cl)cc1)C2=O = 18.9

The record that follows has no TGI shown yet.
Which TGI is reported for this compound? O=C1CC(c2ccc([N+](=O)[O-])cc2)C2(C(=O)NC(=S)NC2=O)C(c2ccc([N+](=O)[O-])cc2)C1 (stereo not given)
76.1

* * *

Tested on: T-47D breast
Assay: NCI tumour cell line growth inhibition, 48 h
Below: a set of entries, each annotated with reported TGI.

O=C1OC[C@@H]2Cc3c([nH]c4ccccc34)[C@@H](c3ccc(O)cc3)N12 = > 100 µM

# value lookup — system T-47D breast, readout TGI, item CC(C)CCNC(=O)c1ccc(CNC(=O)/C=C/c2ccc(OCc3ccccc3)cc2)cc1
> 100 µM

Give the reported TGI for ClCc1ccccc1CSc1ncnc2nc[nH]c12 (system: T-47D breast).
> 60 µM

Query TGI on T-47D breast for COc1cc2c(NCCCCCCO[N+](=O)[O-])ncnc2c(OC)c1OC
> 93.2 µM

Form: Entry = CN1CCN(C(=S)N(C)C(=O)c2ccc(Cl)cc2)CC1 | System = T-47D breast | TGI = ____
> 100 µM

API: value(readout=TGI, system=T-47D breast) for record CC(=O)c1ccc(N(/C=C/C(=O)C(F)(F)F)CC(=O)c2ccc(Cl)c(Cl)c2)cc1
75.4 µM

What value of TGI on T-47D breast does N#Cc1c(OCCF)c2ccccc2n2c1nc1ccccc12 have?
> 100 µM

* * *

Test system: MALME-3M melanoma
Assay: NCI tumour cell line growth inhibition, 48 h
Attribute: GI50

Below, each entry is followed by its recorded GI50 result.
Clc1ccc(Cc2nc3cc4ccccc4cc3[nH]2)cc1 = 26.8 µM
CC1=C2[C@@H](CC1)[C@]1(C)O[C@@](C(C)C)(C[C@H]1OC(=O)[C@H](C)O)[C@H]2OC(=O)/C=C/c1ccccc1 = 14.9 µM
Cc1c(Cl)cccc1Nc1ncccc1C(=O)O = 73.4 µM
ClCc1ccccc1CSc1ncnc2nc[nH]c12 = > 60 µM

Bench note: what GI50 did CCN1CCN(c2nc(NCCNc3ccnc4cc(Cl)ccc34)c3ccccc3n2)CC1 show?
1.95 µM

* * *

Tested on: HOP-92 NSCLC
Experiment: NCI tumour cell line growth inhibition, 48 h
READOUT: TGI (µM)
Answer format: numeric, µM implied, no suffix.

CC1(C)N=C(N)N=C(N)N1c1ccc(CCCCc2ccc(S(=O)(=O)F)cc2Cl)c(Cl)c1 = 48.6

Now for a further molecule.
Look at this molecule and give its reported TGI. COc1ccc(CNc2nc3ccc(C(F)(F)F)cc3nc2-c2ccccc2)cc1OC
15.5
